Recorded Relative luminescence activity, CTZ, Imax values for a group of molecules are listed next.
METHOD: Substrate specificity of WNanoKAZ mutants, crude enzyme solution (Example 11)
Assay type: biochemical
APPLIED CONDITIONS: substrate CTZ, Imax
Enter a number only.

WNanoKAZ-V90I: single amino acid-substituted WNanoKAZ mutant, valine 90 back to isoleucine; SEQ ID NO: 8 (protein) FTLADFVGDWQQTAGYNQDQVLEQGGLSSLFQALGVSVTPIQKVVLSGENGLKADIHVIIPYEGLSGFQMGLIEMIFKVVYPVDDHHFKIILHYGTLVIDGVTPNMIDYFGRPYEGIAVFDGKKITVTGTLWNGNKIIDERLINPDGSLLFRVTINGVTGWRLCERILA : 34
WNanoKAZ: chimeric protein: positions 1-82 of native KAZ and 83-169 of nanoKAZ; SEQ ID NO: 6; I90V, P115E, Q124K, Y138I, N166R (protein, chimeric protein: positions 1-82 of native KAZ and 83-169 of nanoKAZ; I90V, P115E, Q124K, Y138I, N166R) FTLADFVGDWQQTAGYNQDQVLEQGGLSSLFQALGVSVTPIQKVVLSGENGLKADIHVIIPYEGLSGFQMGLIEMIFKVVYPVDDHHFKVILHYGTLVIDGVTPNMIDYFGRPYEGIAVFDGKKITVTGTLWNGNKIIDERLINPDGSLLFRVTINGVTGWRLCERILA : 64
KAZ: 19 kDa protein of native Oplophorus luciferase having luminescence activity; SEQ ID NO: 2 (protein, listed as Oplophorus gracilirostris) FTLADFVGDWQQTAGYNQDQVLEQGGLSSLFQALGVSVTPIQKVVLSGENGLKADIHVIIPYEGLSGFQMGLIEMIFKVVYPVDDHHFKIILHYGTLVIDGVTPNMIDYFGRPYPGIAVFDGKQITVTGTLWNGNKIYDERLINPDGSLLFRVTINGVTGWRLCENILA : 1.0
WNanoKAZ-I138Y: single amino acid-substituted WNanoKAZ mutant I138Y; SEQ ID NO: 14 (protein) FTLADFVGDWQQTAGYNQDQVLEQGGLSSLFQALGVSVTPIQKVVLSGENGLKADIHVIIPYEGLSGFQMGLIEMIFKVVYPVDDHHFKVILHYGTLVIDGVTPNMIDYFGRPYEGIAVFDGKKITVTGTLWNGNKIYDERLINPDGSLLFRVTINGVTGWRLCERILA : 8.5
WNanoKAZ-R166N: single amino acid-substituted WNanoKAZ mutant R166N; SEQ ID NO: 16 (protein) FTLADFVGDWQQTAGYNQDQVLEQGGLSSLFQALGVSVTPIQKVVLSGENGLKADIHVIIPYEGLSGFQMGLIEMIFKVVYPVDDHHFKVILHYGTLVIDGVTPNMIDYFGRPYEGIAVFDGKKITVTGTLWNGNKIIDERLINPDGSLLFRVTINGVTGWRLCENILA : 32

Lookup: Query (molecule): WNanoKAZ-E115P: WNanoKAZ with substitution of proline for glutamic acid at position 115; SEQ ID NO: 10 (protein) FTLADFVGDWQQTAGYNQDQVLEQGGLSSLFQALGVSVTPIQKVVLSGENGLKADIHVIIPYEGLSGFQMGLIEMIFKVVYPVDDHHFKVILHYGTLVIDGVTPNMIDYFGRPYPGIAVFDGKKITVTGTLWNGNKIIDERLINPDGSLLFRVTINGVTGWRLCERILA ; field requested: Relative luminescence activity, CTZ, Imax
Found: 31
